Assayed target: T1, PWWP domain of human HDGF2 (Hepatoma-derived growth factor 2), residues 1-93 (human, UniProt Q7Z4V5 1-93)
T1 construct: PWWP domain of human HDGF2, residues 1-93; Cloned into pET28-MHL (vector GenBank EF456735); also called HGDF2; source: E. coli BL21 (DE3)-V2R-pRARE2, purified (Ni2+ chelating column, TEV cleavage, Source 30S ion exchange)
T1 sequence (Q7Z4V5 1-93): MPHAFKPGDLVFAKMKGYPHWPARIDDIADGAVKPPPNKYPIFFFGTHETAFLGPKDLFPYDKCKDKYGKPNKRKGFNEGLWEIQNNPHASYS
Experimental details: fluorescence polarisation; 384-well plates, 10 µl; N-terminal fluorescein peptide constant at 40 nM, PWWP domain titrated (low to high micromolar); 20 mM PIPES pH 6.5, 50 mM NaCl, 0.01% Tween-20
Measurement conditions: both partners purified
pKd: −log10 of the molar value. Square brackets hold non-standard residues; d marks the D form. Ends that are not written are not given here. fluorescein = fluorescein, N-terminal label; Lys(Me2) = CN(C)CCCC[C@H](N)C(=O)O

>  <Binder>
fluorescein-PATGGV[Lys(Me2)]KPHRY (histone H3, stretch around K36; source: synthetic peptide (Tufts University Core Services)) [H3K36me2 peptide PATGGVK(me)2KPHRY, N-terminal fluorescein]

>  <pKd>
3.00

$$$$

// provenance: paper PMC3119473
